Source listed as PubChem BioAssay (NCI).

# Test system: 786-0 renal
# PROTOCOL_TEXT: NCI-60 one-dose screen, 48 h
# TEST_CONTEXT: 10 µM
About 83,000 compounds went through this panel and 20% of them were active in at least one assay; those are over-represented in the sample as a whole. Activity calls are given as the source filed them. Rule for the calls: active = growth percent below 10; inactive = the rest.
// one of TRUE for active, FALSE for inactive, no free text

Check out these entries, answers already filled in.
1. COC(=O)C1C(O)C(C)C(O)C(C)/C=C\C=C(C)C(=O)Nc2c(C)c(OC(C)=O)c3c(c2O)C(=O)C(C)=C2OCOC(=C23)C(C)=CC(C)(O)C(O)C(C)C1O (stereo not given) = FALSE
2. C[CH2][Hg][S]c1ccccc1C(=O)O = TRUE
3. CN(CCCl)c1ccc(/C=C/C2=[N+](C)c3ccccc3C2(C)C)cc1 = FALSE
4. CC/C(=C/c1ccc(OC)cc1)[N+](=O)[O-] = TRUE

With those in mind, consider the next compound.
Ask: What call does the record list for CCCCCCCC[N+]12CN3CN(CN(C3)C1)C2 ?
Result: FALSE

====

# Tested on: UO-31 renal
# PROTOCOL_TEXT: NCI-60 one-dose screen, 48 h (100 = growth as untreated, 0 = no growth, -100 = all killed)
# TEST_CONTEXT: 10 µM
The panel holds about 83,000 compounds, 20% with a hit somewhere; the sample as a whole holds those more often.
EXPERIMENTAL_ENDPOINT: growth (%)
One number for each entry, in %.

1. COc1cc([C@@H]2c3cc4c(c(O)c3C[C@H]3COC(=O)[C@@H]32)OCO4)cc(OC)c1OC = 32.7

Go through the list and state growth for each entry.
1. [Cl][Hg][c]1ccc(Cl)s1
2. COC12c3c(C)cc(O)c4c(=O)occ(c34)C(=O)C1C13COC(=O)c4c(O)cc(C)c(c41)C(=O)C2C3OC(C)=O (stereo not given)
3. COS(=O)(=O)c1ccccc1
4. CC[C@@H](C)[C@@H]1NC(=O)C(NC(=O)C(CC(C)C)N(C)C(=O)C2CCCN2C(=O)C(C)O)C(C)OC(=O)C(Cc2ccc(OC)cc2)N(C)C(=O)C2CCCN2C(=O)C(CC(C)C)NC(=O)C(C)C(=O)C(C(C)C)OC(=O)C[C@H]1O (stereo not given in full)

Result:
-64.3
91.5
89.5
-33.2

Provide each entry's growth from the list below.
1. Oc1c(Cl)cc(Cl)c2ccccc12.[Cu+2]
2. S=C=NCCc1ccccc1
3. O=S(=O)(F)c1ccc(Cl)cc1
4. O=C(CBr)Nc1ccc(Cl)cc1
5. O=C1CCC(=O)N1SC(Cl)(Cl)Cl

Result:
1: 49; 2: 51.3; 3: 91.5; 4: 90.1; 5: 99.1

====

# Test system: HCC-2998 colon
# PROTOCOL_TEXT: NCI-60 one-dose screen, 48 h (100 = growth as untreated, 0 = no growth, -100 = all killed)
# TEST_CONTEXT: 10 µM
The panel holds about 83,000 compounds, 20% with a hit somewhere; the sample as a whole holds those more often.
EXPERIMENTAL_ENDPOINT: growth (%)
Numbers only, in %.

1. NC(=O)c1cc([N+](=O)[O-])c(Cl)c([N+](=O)[O-])c1Cl = 39.2
2. O=[N+]([O-])c1ccc(N2CCOCC2)c2c1no[n+]2[O-] = -49.1
3. COC(=O)C1C(O)C(C)C(O)C(C)/C=C\C=C(C)C(=O)Nc2c(C)c(OC(C)=O)c3c(c2O)C(=O)C(C)=C2OCOC(=C23)C(C)=CC(C)(O)C(O)C(C)C1O (centres undefined) = 91.6

Kindly review the next compound as well.
Ask: Name the reported growth value associated with the compound C[C@]12CC[C@H]3[C@@H](CCC4=CC(=O)CC[C@@H]43)[C@@H]1CC[C@@H]2OC(=O)N(CCCl)N=O
Result: 58.1

====

# Test system: UO-31 renal
# PROTOCOL_TEXT: NCI-60 one-dose screen, 48 h
# TEST_CONTEXT: 10 µM
# Procedure: Growth inhibition of the UO-31 human tumor cell line is measured as a screen for anti-cancer activity. Cells are grown in 96 well plates and exposed to the test compound for 48 hours. Compounds are tested at a single concentration, which is 10^-5 M for most compounds. The reported endpoint is percent growth (GI% or GIPRCNT), where numbers from 0 - 100% represent growth inhibition, and numbers from -100% - 0 represent cell death. For example, a value of 40 represents 60% growth inhibition. […]
About 83,000 compounds went through this panel and 20% of them were active in at least one assay; those are over-represented in the sample as a whole. The source made the active and inactive calls. How the source made its calls: active means growth percent below 10; inactive means the rest.
Outcome (select one): 1 (yes) for active, 0 (no) for inactive

1. COc1cc(/C=C/[N+](=O)[O-])cc(Br)c1OC = 1 (yes)

Ask: How was CC(Cc1ccc2c(c1)OCO2)NN (stereo unspecified) classified in this test?
Result: 0 (no)

Ask: Entry O=C1C=Cc2ccccc2C1=O : call = ?
Result: 0 (no)

Ask: // outcome(item) with item = CS(=N)(=O)CCC(N)C(=O)O (stereo unspecified)
Result: 0 (no)

Ask: How did this test come out for CC(C)C1(NC(=O)C2CC3c4cccc5[nH]cc(c45)CC3N(C)C2)OC2(O)C3CCCN3C(=O)C(Cc3ccccc3)N2C1=O (stereo unspecified) ?
Result: 0 (no)

Ask: What outcome does the record of this test show for COc1ccc(/C=C(\C)[N+](=O)[O-])cc1OC ?
Result: 1 (yes)

Ask: So what was the verdict on O=[N+]([O-])c1ccc(N2CCOCC2)c2c1no[n+]2[O-] in this test?
Result: 1 (yes)

Ask: What call does the record list for COc1ccccc1[As]=[As]c1ccccc1OC (stereo unspecified) ?
Result: 1 (yes)

Ask: Called result for Cc1cc(C)c(C[N+](C)(C)C)c(C)c1C
Result: 1 (yes)

Ask: I'd appreciate the recorded outcome for C[CH2][Hg][S]c1ccccc1C(=O)O from this test.
Result: 1 (yes)

Ask: What classification did COC(C(=O)C(O)C(C)O)C1Cc2cc3cc(OC4CC(OC(C)=O)C(OC5CC(O)C(OC)C(C)O5)C(C)O4)cc(O)c3c(O)c2C(=O)C1OC1CC(OC2CC(OC3CC(C)(O)C(OC(=O)C(C)C)C(C)O3)C(O)C(C)O2)C(O)C(C)O1 (stereo unspecified) end up with in this test?
Result: 1 (yes)

====

# System: UACC-62 melanoma
# PROTOCOL_TEXT: NCI-60 one-dose screen, 48 h
# TEST_CONTEXT: 10 µM unless noted
Compounds without any hit were thinned out: in the full panel of roughly 83,000, 20% have a hit. Calls of active or inactive are those of the source. Rule for the calls: active = growth percent below 10; inactive = the rest.
The reply should be one of these categories: label 1 for active, label 0 for inactive

Examples with answers:
1. S=C=NCCc1ccccc1 = label 0
2. C/C1=C\[C@H](C)C[C@H](C)OC(=O)C[C@H](c2ccc(O)cc2)NC(=O)[C@@H](Cc2c(Br)[nH]c3ccccc23)N(C)C(=O)[C@H](C)NC(=O)[C@@H](C)C1 = label 1
3. [O-][n+]1ccccc1S = label 0

From here, focus on the item given below.
Ask: Outcome? CC(C)c1cc([N+](=O)[O-])cc([N+](=O)[O-])c1O
Result: label 0

====

# System: ACHN renal
# PROTOCOL_TEXT: NCI-60 one-dose screen, 48 h (100 = growth as untreated, 0 = no growth, -100 = all killed)
# TEST_CONTEXT: 10 µM
This is part of a sample that, as a whole, favours compounds with a hit. Of some 83,000 tested, about 20% had one in any assay. Calls of active or inactive are those of the source. How the source made its calls: active means growth percent below 10; inactive means the rest.
Assign growth to each entry below.

Please review the entries below; each comes with its answer.
1) O=[N+]([O-])c1ccc(N(CCO)CCO)c2c1no[n+]2[O-] = -12.3% (active)
2) O=[N+]([O-])c1cc[n+]([O-])c2ccccc12 = -42.4% (active)
3) CN(C)CC1(N)C(=O)NC(=O)NC1=O = 101% (inactive)

Would you mind listing growth for each of the following compounds?
1. COc1cc2c(c(OC)c1OC)-c1ccc(O)c(=O)cc1[C@@H](NC(C)=O)CC2
2. CC1CCC2(OC1)OC1C(O)C3C4CCC5CC(OC6OC(CO)C(OC7OC(CO)C(O)C(OC8OCC(O)C(O)C8O)C7OC7OC(CO)C(O)C(OC8OC(CO)C(O)C(O)C8O)C7O)C(O)C6O)C(O)CC5(C)C4CCC3(C)C1C2C (stereo unspecified)
3. COC12c3c(C)cc(O)c4c(=O)occ(c34)C(=O)C1C13COC(=O)c4c(O)cc(C)c(c41)C(=O)C2C3OC(C)=O (stereo unspecified)

Result:
1: 61.2% (inactive); 2: 1.57% (active); 3: 100% (inactive)
